# System: HL-60(TB) leukemia
# measurement protocol: NCI-60 one-dose screen, 48 h (100 = growth as untreated, 0 = no growth, -100 = all killed)
# assay context: 10 µM unless noted
The panel holds about 83,000 compounds, 20% with a hit somewhere; the sample as a whole holds those more often.
recorded endpoint: growth (%)
One number for each entry, in %.

A selection of reference data follows.
[[record]]
compound = "CCCCCCCCN(CCO)CCCCCCCC"
recorded_endpoint = "growth"
reported_value = 100

[[record]]
compound = "Cc1nc(Nc2cccnc2)sc1C(=O)/C=C/c1ccc(Cl)cc1"
recorded_endpoint = "growth"
reported_value = -4.8

[[record]]
compound = "ClC1=C(Cl)C(Cl)=C(Cl)C1=Cc1ccccc1"
recorded_endpoint = "growth"
reported_value = -8.87

[[record]]
compound = "N[C@@H]1CCC[C@H]1NCCCCN1C(=O)c2cccc3cc([N+](=O)[O-])cc(c23)C1=O"
recorded_endpoint = "growth"
reported_value = 30.5


Please give growth, item by item, for the list that follows.
1. O=C1NC(=O)C(O)(C2(O)C(=O)NC(=O)NC2=O)C(=O)N1
2. CCCc1cc2cc(-n3nc(C)c4c3CC(C)(C)CC4=O)cc(NC3CCSCC3)c2c(=O)[nH]1
3. CO[C@H](C(=O)[C@@H](O)[C@@H](C)O)[C@@H]1Cc2cc3cc(O[C@H]4C[C@@H](O[C@H]5C[C@@H](O)[C@H](O)C(C)O5)[C@H](O)C(C)O4)c(C)c(O)c3c(O)c2C(=O)[C@H]1O[C@H]1C[C@@H](O[C@H]2C[C@@H](O[C@H]3C[C@](C)(O)C(=O)C(C)O3)[C@@H](O)C(C)O2)[C@H](O)C(C)O1 (some centres not stated)
4. Oc1cccnc1CN1CCCC1

1. 85.9
2. 49.4
3. 2.34
4. 100

Ref: PubChem BioAssay (NCI)
